- System: L1210 leukemia ip in BDF1 mice, survival T/C
- assay-name: NCI In Vivo Anticancer Drug Screen. Data for tumor model L1210 Leukemia (intraperitoneal) in B6D2F1 (BDF1) mice
- condition: endpoint: mean survival time; dose: 200.0 mg/kg/injection; schedule: Q04DX003 (ip); vehicle: water; higher = longer survival
Inconclusive results and toxic doses are left out.
Recorded T/C, one value per entry.

compound	T/C
Nc1cc(S(N)(=O)=O)ccc1Br	97 % of control
COc1cc2c[n+](C)c3c4cc(OC)c(OC)cc4ccc3c2cc1OC	113 % of control
CCC([NH-])=O.CCC([NH-])=O.[Pt+2]	108 % of control
O=C(OCc1ccccc1)C1CCCN1 (centres undefined)	102 % of control

====

Entries and their measured T/C follow.
- Test system: L1210 leukemia ip in BDF1 mice, survival T/C
- assay-name: NCI In Vivo Anticancer Drug Screen. Data for tumor model L1210 Leukemia (intraperitoneal) in B6D2F1 (BDF1) mice
- condition: endpoint: mean survival time; dose: 400.0 mg/kg/injection; schedule: Q01DX001 (ip); vehicle: saline; higher = longer survival
Toxic doses and inconclusive results are not listed.
measurement-name: T/C

compound	observed-value
CCCCCOCC	103 % of control
O=CN/N=C/c1cc(=O)[nH]c(=O)[nH]1	93 % of control
O=C(O)c1cccc(C(=O)c2ccc([N+](=O)[O-])cc2)c1	96 % of control
COc1cc(N)c2ncccc2c1Cl	101 % of control
C[N+]1(C)C2CCC1C(CO)C(O)C2 (stereo not given)	94 % of control
O=C1Nc2ccccc2C2Cc3c([nH]c4ccccc34)CC12 (stereo not given)	89 % of control
O=C(O)/C=C\C(=O)Nc1ccccn1	103 % of control
O=[N+]([O-])c1ccc(O)c(N=Cc2ccccn2)c1	100 % of control
COC1OCCCC1Br (stereo not given)	107 % of control
Cc1ncc(C(N)=O)c(C)n1	101 % of control
NC(=S)N/N=C\c1csc2ccccc12	94 % of control
Cc1nc2ncnc(NCc3ccc(Cl)cc3Cl)c2[nH]1	108 % of control
O=S(=O)(C1CC1c1ccccc1)N1CCCc2ccccc21 (stereo not given)	95 % of control
Cc1cc(/C=C/c2ccc(N(CCCl)CCCl)cc2)nc2ccccc12	103 % of control
CCOC(=O)C(Cc1c[nH]c2cc(N(CCO)CCO)ccc12)(NC(C)=O)C(=O)OCC	98 % of control
CC1OC(OC2CCC3(C)C(CCC4C3CC(O)C3(C)C(C5=CC(=O)OC5)CCC43O)C2)CC(O)C1OC1CC(O)C(OC2CC(O)C(OC3OC(CO)C(O)C(O)C3O)C(C)O2)C(C)O1 (stereo not given)	100 % of control
O=C(O)CC(C[N+](=O)[O-])C(F)(F)C(F)(F)C(F)(F)F (stereo not given)	101 % of control
CSCc1ccccn1	104 % of control
N#Cc1cn(-c2ccc(Cl)cc2)c2ncccc12	102 % of control
CCC(CC)(CC)c1ccc2ccccc2c1	106 % of control

====

- System: L1210 leukemia ip in BDF1 mice, survival T/C
- assay-name: NCI In Vivo Anticancer Drug Screen. Data for tumor model L1210 Leukemia (intraperitoneal) in B6D2F1 (BDF1) mice
- condition: endpoint: mean survival time; dose: 200.0 mg/kg/injection; schedule: Q04DX002 (ip); vehicle: saline; higher = longer survival
- Method: The antitumor activity of compounds was measured in mice bearing transplantable tumors. Survival or tumor size were measured and the results are expressed as the measurement made in the treated group (T) divided by the measurement made in the vehicle treated control group (C). The tumor model used in this assay is L1210 Leukemia (intraperitoneal) in B6D2F1 (BDF1) mice
Toxic doses and inconclusive results are not listed.

compound	T/C
CNC(=O)C(C)NC(C)=O (stereo not drawn)	105 % of control
c1ccc(CCSCCCSCCc2ccccn2)nc1	92 % of control
O=C(O)c1ccc(N/N=C/C(F)(F)F)cc1	96 % of control
CC12CCC(=O)N1C(C(=O)O)CS2 (stereo not drawn)	102 % of control
COC(=O)c1ccc(S(=O)(=O)O)cc1[N+](=O)[O-]	88 % of control
CC(=O)OC1CC2(CO2)C2CC3OC3(C)C2C2OC(=O)C(C)C12 (stereo not drawn)	110 % of control
C=CCP(C)(=O)CC=C	108 % of control
CC(C)CCOC(=O)C1OC1(C)c1ccccc1 (stereo not drawn)	93 % of control
